# Assayed Target: PA0847 (Pseudomonas aeruginosa, UniProt Q9I594)
# Sequence (Q9I594 440-735 limits assumed): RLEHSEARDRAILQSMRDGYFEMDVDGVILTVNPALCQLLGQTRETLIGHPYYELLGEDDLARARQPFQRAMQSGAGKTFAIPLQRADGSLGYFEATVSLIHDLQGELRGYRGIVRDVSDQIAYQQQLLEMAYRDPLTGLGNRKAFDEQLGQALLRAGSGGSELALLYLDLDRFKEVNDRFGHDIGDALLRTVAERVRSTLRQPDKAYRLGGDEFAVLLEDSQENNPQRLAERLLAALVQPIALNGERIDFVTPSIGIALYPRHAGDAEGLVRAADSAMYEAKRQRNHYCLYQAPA
# Assay Remarks: titration of GTPγS to purified PAS-GGDEF
# Format: binding
Measured Metric: pKd
The quantity pKd is defined as the negative base-10 logarithm of the molar concentration.

If you can, please state the reported pKd value of "Nc1nc2c(ncn2[C@@H]2O[C@H](COP(=O)(O)OP(=O)(O)OP(O)(O)=S)[C@@H](O)[C@H]2O)c(=O)[nH]1" .
4.82

Values from paper PMC6497469
